Cited source: PubChem BioAssay (EPA / NIEHS)

Read-out: Matrix Metallopeptidase 1 (MMP1), MMP1 (gene 4312)
Experiment: BSK_BE3C_MMP1: BioMAP Diversity Plus: BE3C Assay for Matrix Metallopeptidase 1 (MMP1) Biomarker Activity (AID 2283024)
Settings: primary human bronchial epithelial cells; actives raise or lower the signal
Active and inactive are the calls of the source. The calls were made as follows: active = hit-call score of the fitted dose curve at least 0.9, where 1 is the maximum; inactive = score below 0.9.
Write down the outcome that applies. Available outcomes: active, inactive

The following compounds have reported results that may help.
ClC1=C(Cl)[C@]2(Cl)[C@H]3[C@H]([C@H]4C=C[C@H]3C4)[C@@]1(Cl)C2(Cl)Cl    inactive
COC[C@H](C)N(C(=O)CCl)c1c(C)csc1C    inactive
COP(=S)(OC)Oc1c(Cl)cc(C)cc1Cl    inactive

Could you please tell me the result logged for `CC(=O)[O][Hg][c]1ccccc1` in this assay? active

Could you please tell me the result logged for `CN(C)N=O` in this assay? inactive

Could you please tell me the result logged for `O=C(O)C(Cl)(Cl)Cl` in this assay? inactive

Could you please tell me the result logged for `NC(=O)O` in this assay? inactive

====

Biological target: X-box-binding protein 1 (Homo sapiens)
Experiment: ATG_Xbp1_CIS: Attagene CIS-FACTORIAL HepG2 Assay for human X-box Binding Protein 1 (XBP1) (AID 2282972)
Conditions: HepG2 XBP1 cis-element reporter, Attagene multiplex; actives raise or lower the signal
Calls of active or inactive are those of the source. Rule for the calls: active = hit-call score of the fitted dose curve at least 0.9, where 1 is the maximum; inactive = score below 0.9.
Write down the outcome that applies. Available outcomes: true for active, false for inactive

The following compounds have reported results that may help.
O=C(O)C(F)(F)C(F)(F)C(F)(F)C(F)(F)C(F)(F)C(F)(F)F    false
CCCCCCCCc1ccc(O)cc1    false
Nc1cccc2ccccc12    false
CCOP(=S)(OCC)SCSP(=S)(OCC)OCC    false
O=[N+]([O-])c1ccc2c3c(cccc13)CC2    false
CC1(C)Cc2cccc(O)c2O1    false

Could you please tell me the result logged for `Cl/C=C/Cl` in this assay? false

Could you please tell me the result logged for `C=CC(=O)OCCCCCC(C)C` in this assay? false

Could you please tell me the result logged for `COc1cc(OC)nc(NC(=O)NS(=O)(=O)c2ncccc2C(=O)N(C)C)n1` in this assay? false

Could you please tell me the result logged for `CC(C)CCCCCCOC(=O)c1ccccc1C(=O)OCCCCCCC(C)C` in this assay? false

====

Target: Peroxisome proliferator-activated receptor gamma (Homo sapiens)
Test: OT_PPARg_PPARgSRC1_1440: Odyssey Thera (OT) 24-hour Protein-Complementation Assay for Peroxisome Proliferator-activated Receptor Gamma/ SRC-1 Co-activator (AID 2283388);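 also: nuclear to cytoplasmic ratio of reconstituted Venus YFP fluorescence in fixed imaged cells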
The source made the active and inactive calls. How the source made its calls: active means hit-call score of the fitted dose curve at least 0.9, where 1 is the maximum; inconclusive means response in the unintended direction; inactive means score below 0.9.
Write down the outcome that applies. Available outcomes: active, inactive

CC(=O)C=C(C)C    inactive
Clc1nc(Cl)nc(Cl)n1    inactive
N#CN=C(N)N    inactive
CC1(C)Cc2cccc(O)c2O1    inactive

Could you please tell me the result logged for `O=C(O)C(F)(F)C(F)(F)C(F)(F)C(F)(F)C(F)(F)C(F)(F)F` in this assay? inactive

Could you please tell me the result logged for `COc1ccc(C=O)cc1` in this assay? inactive

Could you please tell me the result logged for `C[C@H]1CCCC(=O)CCC/C=C/c2cc(O)cc(O)c2C(=O)O1` in this assay? inactive

Could you please tell me the result logged for `C[C@]12CCC(=O)C[C@@H]1CC[C@@H]1[C@@H]2CC[C@]2(C)[C@@H](O)CC[C@@H]12` in this assay? inactive

Could you please tell me the result logged for `O=C1C(Cl)=C(Cl)C(=O)c2ccccc21` in this assay? active
